# Measurement Notes: Pharmacokinetic study: plasma and brain concentration after a single oral dose
# Format: in vivo, SD rats
# Condition Context: male, SD, rat, brain/plasma, po
For each record, write down the corresponding Kp.
Answers are plain numbers.

These solved cases illustrate the format of a correct answer.
* C=CC(=O)N1CCC[C@@H](n2nc(-c3ccc(Oc4ccccc4)cc3)c3c(N)ncnc32)C1 [ibrutinib] | 0.098
* C=CC(=O)N1CCC([C@@H]2CCNc3c(C(N)=O)c(-c4ccc(Oc5ccccc5)cc4)nn32)CC1 [zanubrutinib] | 0.035

As a next step, examine the molecule that follows.
**Query** I am curious: what Kp value has been reported for CC#CC(=O)N1CC[C@@H](n2c(=O)n(-c3ccc(Oc4ccccc4)cc3)c3c(N)ncnc32)C1 [tirabrutinib] ?
**Result** 0.085
